METHOD_NOTES: Diphenyl-picryl-hydrazyl (DPPH) scavenging activity
Type: biochemical
APPLIED_CONDITIONS: concentration needed to scavenge DPPH by 50%; EGCG moiety concentration for EGCG-containing samples, n = 3
RECORDED_ENDPOINT: pIC50
Numbers only, as −log10 of the molar value.

Ask | Return the recorded pIC50 value; entry: O=C1O[C@H]([C@@H](O)CO)C(O)=C1O [Vitamin C, reference compound]
Reply | 4.35
